tested on: Cheumatopsyche; assay: Insecticidal activity against first-instar larvae of Cheumatopsyche brevilineata after 48 hr; type: functional, organism-based
Metric name: log10 EC50 (log10 of the value in ng/mL)
The base-10 logarithm of EC50, taken with EC50 in ng/mL, is what appears here.

{"Compound": "CS/C(C)=N\\OC(=O)N(C)SN(C)C(=O)O/N=C(\\C)SC", "log10 EC50": 2.16}
{"Compound": "COP(=O)(OC)C(O)C(Cl)(Cl)Cl (stereo not given)", "log10 EC50": 0.31}

// log10 EC50 lookup, key: COP(=S)(OC)Oc1ccc([N+](=O)[O-])c(C)c1
0.89

# get_value(readout='log10 EC50', item= CC1=NNC(=O)N(/N=C/c2cccnc2)C1 )
5.05

log10 EC50 lookup needed for CCOc1ccc(C(C)(C)COCc2cccc(Oc3ccccc3)c2)cc1 , thanks.
-0.94

# lookup: log10 EC50 of CCOC(=O)CC(SP(=S)(OC)OC)C(=O)OCC (stereo not given)
0.26

Which log10 EC50 is reported for this compound? CN(C)C1CSSSC1.O=C(O)C(=O)O [THIOCYCLAM HYDROGEN OXALATE]
0.76

Can you look up the measured log10 EC50 of CCOc1ccc([Si](C)(C)CCCc2ccc(F)c(Oc3ccccc3)c2)cc1 for me?
-0.22

Need log10 EC50, item CC1(C)C(C=C(Cl)Cl)C1C(=O)OCc1cccc(Oc2ccccc2)c1 (stereo not given)
-0.69

For the compound shown here, COP(=O)(OC)OC=C(Cl)Cl , give the reported log10 EC50.
0.07
